System: Plasmodium falciparum
test name: GSK_TCMDC: Inhibition of Plasmodium falciparum 3D7 in whole red blood cells, using parasite LDH activity as an index of growth. Test compounds present at 2uM
Type: functional
outcome measure: Inhibition (%)
Reply numerically in %, unit not repeated.

# annotated cases, reported Inhibition shown
compound: O=C(NCC1CCN(Cc2ccc(F)cc2)C1)c1cc(-c2cccc(C(F)(F)F)c2)cs1.O=C(O)C(F)(F)F (stereo not drawn)
experimental result: 93
//
compound: CN1CCCc2cc(NC(=O)C=Cc3ccc(-c4ccc(F)cc4F)o3)ccc2C1.O=C(O)C(F)(F)F
experimental result: 90
//
compound: CCNc1cc(C(=O)N[C@@H](Cc2ccccc2)[C@H](O)CN[C@H](C)c2ccccc2)cc(N2CCCC2=O)c1
experimental result: 97

Q) Tell me the measured Inhibition of "O=C(Cc1cccc(O)c1)Nc1ccc(-c2cccc(-c3nc4cc(C(F)(F)F)ccc4[nH]3)c2)cc1" , please.
A) 86

Q) Entry to check: "Cc1cc(CNCCCCCNCc2cccc([N+](=O)[O-])c2)ccc1O"
A) 98

Q) Entry to check: "O=C(NCCCCN1CCN(c2cccc3c2CCCC3)CC1)c1ccc(NC(=O)c2ccc(Cl)cc2)cc1"
A) 100

Q) Entry to check: "COc1ccc(-c2nc3c(N)nc(N)nc3nc2-c2ccccc2Cl)cc1.COc1ccc(-c2nc3nc(N)nc(N)c3nc2-c2ccccc2Cl)cc1.Cl"
A) 93

Q) Entry to check: "CN(C)CCOc1ccnc2ccc(NC(=O)Cc3ccc(-c4ccncc4)c4ccccc34)cc12"
A) 100

Measured values drawn from ChEMBL document CHEMBL1157539 for this set.
